// data source = ChEMBL document CHEMBL2321792

# Assayed System: UniProt:P04799
# Sequence (P04799 whole entry): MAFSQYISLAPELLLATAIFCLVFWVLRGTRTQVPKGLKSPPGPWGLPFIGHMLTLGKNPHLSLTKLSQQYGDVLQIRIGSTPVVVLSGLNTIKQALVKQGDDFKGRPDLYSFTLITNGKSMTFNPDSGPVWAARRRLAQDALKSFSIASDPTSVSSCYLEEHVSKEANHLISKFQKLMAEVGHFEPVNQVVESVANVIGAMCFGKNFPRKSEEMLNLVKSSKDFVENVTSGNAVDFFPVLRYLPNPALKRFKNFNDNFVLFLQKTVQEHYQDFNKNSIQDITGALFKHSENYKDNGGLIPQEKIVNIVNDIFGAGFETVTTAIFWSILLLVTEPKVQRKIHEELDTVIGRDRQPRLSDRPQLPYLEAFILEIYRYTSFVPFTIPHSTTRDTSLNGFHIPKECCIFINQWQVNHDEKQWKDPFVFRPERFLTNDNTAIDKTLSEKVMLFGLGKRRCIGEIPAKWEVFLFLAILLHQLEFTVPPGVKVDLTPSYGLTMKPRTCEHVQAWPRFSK
pIC50: −log10 of the molar value.
Measurement Type: pIC50

Readout pIC50 for "CCO[C@H]1O[C@@H]2O[C@@]3(C)CC[C@H]4[C@H](C)CC[C@@H]([C@H]1C)[C@@]24OO3" , test system UniProt:P04799, was < 4.00

====

# Assay Info: Intrinsic clearance in rat liver microsomes at […] by HPLC-PDA analysis
# Assay type: ADME, Microsome
# Condition Description: read-out: CLH
Measured microsomal CLint of individual entries
// note: answer is a bare numeric in µL/min/mg

- Compound: "CCO[C@H]1O[C@@H]2O[C@@]3(C)CC[C@H]4[C@H](C)CC[C@@H]([C@H]1C)[C@@]24OO3 [ARTEMOTIL]"
  Unit Tag: "µL/min/mg"
  Measured Result: 36.6

In the following, a different compound is considered.
Looking up C=C(c1ccc(Cl)cc1)[C@H]1OOC2(CCCCC2)O[C@@H]1c1ccc(Cl)cc1 (relative stereo) , I found its microsomal CLint recorded as 60.3
